The measurements presented in this section are drawn from ChEMBL document CHEMBL4483862.

- Tested on: Plasmodium berghei
- Protocol Text: Luciferase/luciferin-expressing antifolate-resistant parasites were used to infect a culture of HepG2 cells that were pre-incubated with compounds. Infected hepatocytes emit light due to the luciferase reaction. Assay results are presented as the percent inhibition of light emission compared to control. […]
- Assay type: functional
- Condition Context: sporozoite, read-out: LUCIFERASE INFECTION ASSAY - IC90
IC90 values, listed per item

Notebook: CN(C)CCNC(=O)c1cccc(-c2cc(-c3ccc(-c4ccccc4)cc3F)cnc2N)c1 , IC90 read as > 7.26 µM

Notebook: Cc1cccc(C)c1NC(=O)N1[C@@H]2CC[C@@H](C2)[C@H]1c1nc2cccc(OCc3ccc(F)cc3)c2[nH]1 , IC90 read as > 10 µM

Notebook: Cc1cc(=O)nc(N(C(=O)Nc2ccccc2)c2cccc(C(F)(F)F)c2)n1C(=O)Nc1ccccc1 , IC90 read as > 10 µM

----------
- System: Plasmodium berghei
- Protocol Text: Luciferase/luciferin-expressing antifolate-resistant parasites were used to infect a culture of HepG2 cells that were pre-incubated with compounds. Infected hepatocytes emit light due to the luciferase reaction. Assay results are presented as the percent inhibition of light emission compared to control. […]
- Format: functional
- Condition Context: sporozoite, read-out: LUCIFERASE INFECTION ASSAY - IC90
Readout Type: IC90

CN(Cc1nc(N)c2c3c(sc2n1)CCCC3)Cc1cccs1 :: > 10 µM
O=[N+]([O-])c1ccc(SCCO)c2nonc12 :: 12.8 µM
CN1CCN(c2ccc(-c3cn4c(-c5ccc(F)c(Cl)c5)cnc4cn3)cn2)CC1 :: > 7.8 µM
CN(C)CCNc1nc(Oc2cccc3ccccc23)c2sccc2n1 :: > 9.05 µM
CC(C)=CC(=O)Nc1scc(-c2ccccc2)c1C(=O)OCC(=O)N(CCC#N)c1cc(C)cc(C)c1 :: > 10 µM

Notebook: CC(=O)c1sc(SCCS(=O)(=O)c2ccc(Cl)cc2)c2c1CCCC2=O , IC90 read as > 7.69 µM

Notebook: CC(=O)NC12CC3CC(C1)CC(C(=O)Nc1ccc4c(c1)-c1ccccc1C4)(C3)C2 , IC90 read as 5.37 µM

Notebook: NC(=O)NC(=O)C(Nc1ccc(Oc2ccccc2)cc1)c1ccccc1 (configuration not stated) , IC90 read as > 10 µM

Notebook: CN(C)c1cccc(-c2cnc3cnc(-c4cnn(C)c4)cn23)c1 , IC90 read as > 10.4 µM

Notebook: O=C(Nc1cc(C(F)(F)F)cc(C(F)(F)F)c1)Nc1cnn(-c2ccccc2)c1C(F)(F)F , IC90 read as 2.67 µM

Notebook: COc1ccc(-c2cc(C(=O)NNC(=S)NC3CC4CCC3C4)[nH]n2)cc1 (configuration not stated) , IC90 read as > 10 µM

Notebook: Cc1ccc(C(C)C)c(OCc2ccc(C(=O)N/N=C/c3cc(C)n(Cc4ccco4)c3C)cc2)c1 , IC90 read as > 10 µM

----------
- Test system: Plasmodium berghei
- Protocol Text: Luciferase/luciferin-expressing antifolate-resistant parasites were used to infect a culture of HepG2 cells that were pre-incubated with compounds. Infected hepatocytes emit light due to the luciferase reaction. Assay results are presented as the percent inhibition of light emission compared to control. […]
- Assay type: functional
- Condition Context: sporozoite, read-out: LUCIFERASE INFECTION ASSAY - IC50
pIC50: −log10 of the molar value.
Readout Type: pIC50

Sample records with pIC50:
O=C(NC(=S)NN(Cc1ccccc1)c1ccccc1)C12CC3CC(CC(C3)C1)C2 :: < 5.00
CCCCN1C(=O)c2ccc(C(=O)C(C#N)c3nc4ccccc4[nH]3)cc2C1=O (configuration not stated) :: < 5.00
Cc1nc(SCC(=O)c2cc(C)n(-c3ccccc3)c2C)c2ccsc2n1 :: < 5.00
CC(C)CNc1nn2c(-c3ccc(O)cc3)cnc2s1 :: < 4.94
Nc1ncc(-c2ccc(F)c(Cl)c2)cc1-c1ccc(O)cc1 :: < 4.98

Notebook: COc1ccc(F)cc1-c1csc(-c2ccc(NC(=O)c3cccs3)cc2)n1 , pIC50 read as < 5.00

Notebook: CN1c2ccsc2C(=O)/C(=C\Nc2ccccc2Cl)S1(=O)=O , pIC50 read as < 5.03

Notebook: NNC(=O)COc1ccccc1CSc1ccc(Cl)cc1 , pIC50 read as < 4.99

Notebook: Cc1ccc(Oc2ccc(S(=O)(=O)NCCN(C)C)cc2)cc1 , pIC50 read as < 5.00

Notebook: CCc1ccc(C(NCC(=O)NC(=O)NC)C(C)C)cc1 (configuration not stated) , pIC50 read as < 5.00

Notebook: O=C(OCc1csc(-c2ccccc2)n1)c1ccccc1Sc1ccc(C(F)(F)F)cc1[N+](=O)[O-] , pIC50 read as < 5.00

Notebook: COc1cccc(C(=O)Nc2ccc(Sc3cccc(C(F)(F)F)c3)c(C#N)c2)c1 , pIC50 read as < 5.11

Notebook: N#C/C(=N\Nc1ccc(F)c(Cl)c1)C(=O)c1ccc(Cl)cc1 , pIC50 read as 5.97

Notebook: c1ccc2cc(-c3csc(Nc4cccc5ccccc45)n3)ccc2c1 , pIC50 read as < 5.03

Notebook: O=C(CN1CCN(C(=O)CCc2cnn(-c3ccccc3)c2)CC1)NC1CC1 , pIC50 read as < 5.00

Notebook: CC(C)Cn1c(-c2cc([N+](=O)[O-])ccc2Cl)nc2c1c(=O)[nH]c(=O)n2Cc1ccccc1 , pIC50 read as < 5.00

Notebook: CC1CN(C(=O)c2ccc(CN3C(=O)CNC3=O)cc2)CCO1 (configuration not stated) , pIC50 read as < 5.00
